# TEST: qHTS to identify inhibitors of the type 1 interferon - major histocompatibility complex class I in skeletal muscle: Secondary screen by immunofluorescence; further: nearly all actives have a fitted effect of over 70% in size
# STATED CONDITIONS: C25cl48 myoblasts, IFN-b induced HLA-ABC immunofluorescence, 24 h, Viability; series mostly up to 49.8 µM
Results filed as inconclusive are left out. Calls of active or inactive are those of the source. The call rests on the fitted dose curve; in most records, active means well fitted inhibition curve with a large enough effect; inconclusive means small, poorly fitted or top-dose-only effect; inactive means no such curve, though single readings can be large or run the other way.
Use one of these outcomes when replying: y (active), n (inactive)

Exercise: Answer briefly: the call reported for C[C@]12CCC(=O)C=C1CC[C@H]1[C@@H]3CC[C@](O)(C(=O)CO)[C@@]3(C)C[C@H](O)[C@@]12F in this assay.
Key: n

Exercise: Called result for O=C(/C=C/c1ccc(CN(CCO)CCc2c[nH]c3ccccc23)cc1)NO
Key: n

Exercise: Dear all, I need the recorded test outcome for Cc1ccc2nc(NCCN)c3ncc(C)n3c2c1 , thank you.
Key: n

Exercise: Identify the outcome logged in this assay for the compound shown: COc1ccc(-c2ccc3ncc4c(c3c2)n(-c2ccc(N3CCNCC3)c(C(F)(F)F)c2)c(=O)n4C)cn1
Key: y

Exercise: Entry CC(C)c1cc(C(=O)N2Cc3ccc(CN4CCN(C)CC4)cc3C2)c(O)cc1O : call = ?
Key: n
